Tested on: Hs-578T
assay: NCI tumour cell line growth inhibition, 48 h
Active and inactive are the calls of the source. Cut-off read from the data, not from the text of the source: active = GI50 up to about 1.1 µM and inactive = higher.
Measured GI50, listed per entry for reference.

These solved cases illustrate the format of a correct answer.
What value of GI50 has been recorded for this entry: CC(=O)OCC1OC(Oc2cc(C)c(O)cc2C/C=C(\C)CC/C=C(\C)CC(=O)CC(C)C)C(O)C(OC(C)=O)C1OC(C)=O (configuration not stated) 11.9 µM (inactive)

What value of GI50 has been recorded for this entry: CC(=O)N1NC(c2ccccc2)=NC(=O)C1c1cc(C)c(O)c(C)c1 (configuration not stated) 29.8 µM (inactive)

// GI50 lookup, key: COc1ccc(-n2cnc3c(NCC(=O)O)ncnc32)cc1 > 100 µM (inactive)

GET /values?readout=GI50&item= CC(=O)N1C(c2[nH]c3ccccc3c2Cc2ccccc2)CCN1c1ccccc1 (configuration not stated) 9.31 µM (inactive)

Requested read-out: GI50. Entry: C/C(=N\OCC(O)CNCCSCc1ccccc1)c1ccccc1Cl (configuration not stated) 27.7 µM (inactive)

I would be grateful if you could share the reported GI50 for C/C(=N\Nc1nc2ccccc2o1)c1cccc[n+]1[O-] . > 100 µM (inactive)

Next:
Any idea what GI50 was measured for CCN(c1cccc(NC(=S)Nc2ccccc2N(CC)c2cc(-c3ccccc3)no2)c1)c1cc(-c2ccccc2)no1 ? > 100 µM (inactive)

Entry CCOC(=O)Cc1csc(N/N=C2\C(=O)Nc3ccccc32)n1 : reported GI50 = ? 56.1 µM (inactive)

Would you kindly share the measured GI50 for COc1cc2c(cc1OC)-c1cc3cc(OC)c(OC)cc3c(=O)n1CC2 ? 6 µM (inactive)

Any idea what GI50 was measured for Cc1ccnc2nc3[nH]c4ccccc4c3cc12 ? > 100 µM (inactive)

# get_value(readout='GI50', item= O=C(O)c1cc(O)c2c(c1)C([C@@H]1c3cccc(O)c3C(=O)c3c(O)cc(C(=O)O)cc31)c1cccc(O)c1C2=O (some centres not stated) ) 24.9 µM (inactive)

Given the compound CN1C(=O)C(=CNc2ccccc2[N+](=O)[O-])C(=O)N(C)C1=O , what is its reported GI50? > 100 µM (inactive)

Tell me the measured GI50 of CCOc1ccc(/N=N/c2ccc3cc(/C(C)=N/NC(=O)/C(C#N)=C\c4ccc(N(CCC#N)CCC#N)cc4)c(=O)oc3c2)cc1 , please. > 10 µM (inactive)

---

System: SF-268
assay: NCI tumour cell line growth inhibition, 48 h
Calls of active or inactive are those of the source. No stated cut-off is given here; in the data, active = GI50 up to about 1.1 µM and inactive = higher.
Consider the following compounds and their measured GI50 readings.

Consider the compound shown here: O=C(O)CO/N=C1/C(=C2/C(=O)Nc3ccccc32)Nc2ccccc21 What is its recorded GI50? 35.7 µM (inactive)

Returns the measured GI50 for the input compound. Input: COc1ccc(C(=O)Sc2c(-c3ccccc3)c(=O)n(-c3ccccc3)c(=S)n2-c2ccccc2)cc1 67.5 µM (inactive)

# query: GI50 of entry N=C(N)c1ccc(/N=N\c2c(O)ccc3c2[nH]c2ccccc23)cc1 19.5 µM (inactive)

Fill in: GI50 of O=C1Nc2nc3ccccc3n2N=C2CCCC12 (stereo not given) is ___ > 100 µM (inactive)

Requested read-out: GI50. Entry: COC1=NN2C(OC)(c3ccccc3)c3c(-c4ccccc4)sc(-c4ccccc4)c3C2(c2ccccc2)S1 (stereo not given) > 100 µM (inactive)

***
So what does the record say about GI50 for Cn1nc(-c2cccc(-c3nn(C)/c(=N\CCO)s3)n2)s/c1=N/CCO ? > 100 µM (inactive)

// query GI50 value for entry COC(=O)c1c(C)c2c(c(C)c1C(=O)OC)-c1c(C)ccc3ccc(C)c-2c13 54 µM (inactive)

Which GI50 is reported for this compound? CC(C)(O)C1OCC(C2CCC3(C)C4=CCC5C(C)(C)C(O)CCC5(C)C4CCC23C)CC1O (stereo not given) 16.1 µM (inactive)

Using the record for O=C(NNC(=S)Nc1ccc(Br)cc1)c1cc(-c2ccccc2)nc2ccccc12 , report its GI50. 33.3 µM (inactive)

Could you share which GI50 value was measured for O=C(OCc1ccccc1)OOC(=O)OCc1ccccc1 ? > 100 µM (inactive)

# credit: ChEMBL document CHEMBL1201862
